IC50 listing for selected compounds.
Target: HBV-Polymerase (Hepatitis B virus genotype D subtype ayw, UniProt P03156)
Construct: Es wurde zunächst die Hemmbarkeit der HBV-assoziierten Polymerase; host or cells: virus-associated endogenous polymerase
Sequence (P03156 whole entry): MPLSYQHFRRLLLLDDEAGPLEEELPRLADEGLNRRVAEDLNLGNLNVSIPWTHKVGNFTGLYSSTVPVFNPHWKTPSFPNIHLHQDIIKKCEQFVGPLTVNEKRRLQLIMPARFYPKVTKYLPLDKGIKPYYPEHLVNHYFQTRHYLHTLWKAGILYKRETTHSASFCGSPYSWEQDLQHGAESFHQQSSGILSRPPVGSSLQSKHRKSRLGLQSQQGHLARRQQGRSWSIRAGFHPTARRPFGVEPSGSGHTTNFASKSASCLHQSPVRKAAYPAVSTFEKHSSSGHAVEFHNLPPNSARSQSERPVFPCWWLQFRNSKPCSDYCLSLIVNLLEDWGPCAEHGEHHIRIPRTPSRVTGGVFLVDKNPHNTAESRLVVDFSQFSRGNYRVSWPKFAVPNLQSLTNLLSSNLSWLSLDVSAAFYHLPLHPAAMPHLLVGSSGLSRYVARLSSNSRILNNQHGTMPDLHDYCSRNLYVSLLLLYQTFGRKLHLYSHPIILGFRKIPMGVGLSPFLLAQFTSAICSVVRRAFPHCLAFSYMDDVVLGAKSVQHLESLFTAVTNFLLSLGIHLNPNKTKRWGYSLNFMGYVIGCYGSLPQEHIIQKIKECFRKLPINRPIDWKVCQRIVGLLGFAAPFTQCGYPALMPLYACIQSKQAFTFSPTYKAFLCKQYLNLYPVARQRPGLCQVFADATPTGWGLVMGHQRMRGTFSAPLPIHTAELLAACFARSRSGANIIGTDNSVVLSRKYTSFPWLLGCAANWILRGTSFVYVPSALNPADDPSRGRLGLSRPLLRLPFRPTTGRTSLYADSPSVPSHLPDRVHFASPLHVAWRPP
Test: Inhibition of HBV polymerase activity by nucleoside triphosphate analogues (method of Kaplan et al.)
Type: biochemical
Numeric only. Scale: nM

>>> number("Nc1nc2c(ncn2[C@H]2C[C@H](F)[C@@H](COP(=O)(O)OP(=O)(O)OP(=O)(O)O)O2)c(=S)[nH]1")
500

Please turn your attention to the following entry.
Fill blank: measured IC50 of the compound `Nc1ncc2ncn([C@H]3C[C@H](F)[C@@H](COP(=O)(O)OP(=O)(O)OP(=O)(O)O)O3)c2n1` is ____.
600

====

Target: HBV-Polymerase (Hepatitis B virus genotype D subtype ayw, UniProt P03156)
Construct: Es wurde zunächst die Hemmbarkeit der HBV-assoziierten Polymerase; host or cells: virus-associated endogenous polymerase
Test: Inhibition of HBV polymerase activity by nucleoside triphosphate analogues (method of Kaplan et al.)
Format: biochemical
Settings: 50 % inhibition of HBV polymerase activity; 3 h incubation at 37 °C; read-out: ID₅₀
observation type: pIC50
Note on pIC50: it is the negative log10 of concentration, concentration in mol/L.

Before answering, review these 5 worked examples.
>>> number("Cc1cn([C@H]2C[C@H](N=[N+]=[N-])[C@@H](COP(=O)(O)OP(=O)(O)OP(=O)(O)O)O2)c(=O)nc1N [N₃MetdCTP]")
6.92
>>> number("Nc1nc2c(ncn2[C@H]2C[C@H](N)[C@@H](COP(=O)(O)OP(=O)(O)OP(=O)(O)O)O2)c(=O)[nH]1")
5.40
>>> number("Cc1cn([C@H]2CC[C@@H](COP(=O)(O)OP(=O)(O)OP(=O)(O)O)O2)c(=O)nc1N [ddMetCTP]")
5.10
>>> number("Cc1cn([C@H]2C[C@H](Cl)[C@@H](COP(=O)(O)OP(=O)(O)OP(=O)(O)O)O2)c(=O)nc1N [ClMetdCTP]")
5.05
>>> number("CCc1cn([C@H]2C[C@H](F)[C@@H](COP(=O)(O)OP(=O)(O)OP(=O)(O)O)O2)c(=O)nc1N [FEtdCTP]")
6.46

Fill blank: measured pIC50 of the compound Cc1cn([C@H]2C[C@H](F)[C@@H](COP(=O)(O)OP(=O)(O)OP(=O)(O)O)O2)c(=O)nc1N [FMetdCTP] is ____.
7.52

Fill blank: measured pIC50 of the compound Nc1nc2c(ncn2[C@H]2C=C[C@@H](COP(=O)(O)OP(=O)(O)OP(=O)(O)O)O2)c(=O)[nH]1 [ddeGTP] is ____.
5.80

Fill blank: measured pIC50 of the compound Cc1cn([C@H]2C[C@H](F)[C@@H](CO)O2)c(=O)nc1N [2′,3′-Didesoxy-3′-fluor-5-methylcytidin] is ____.
7.52

Fill blank: measured pIC50 of the compound Nc1nc2c(ncn2[C@H]2C[C@H](F)[C@@H](COP(=O)(O)OP(=O)(O)OP(=O)(O)O)O2)c(=O)[nH]1 [FdGTP] is ____.
6.82

Fill blank: measured pIC50 of the compound Cc1cn([C@H]2C=C[C@@H](COP(=O)(O)OP(=O)(O)OP(=O)(O)O)O2)c(=O)nc1N [ddeMetCTP] is ____.
6.55

Fill blank: measured pIC50 of the compound Nc1ccn([C@H]2C=C[C@@H](COP(=O)(O)OP(=O)(O)OP(=O)(O)O)O2)c(=O)n1 [ddeCTP] is ____.
5.60

Fill blank: measured pIC50 of the compound Nc1ncnc2c1ncn2[C@H]1C=C[C@@H](COP(=O)(O)OP(=O)(O)OP(=O)(O)O)O1 [ddeATP] is ____.
5.74

Fill blank: measured pIC50 of the compound Cc1cn([C@H]2C[C@H](N)[C@@H](COP(=O)(O)OP(=O)(O)OP(=O)(O)O)O2)c(=O)nc1N [NH₂MetdCTP] is ____.
4.59
